B1: FCHO1 (parent)
chain: DKLALCHLELTRKLQDLIKDVLRY

Variants of: B1
procedure-details: protein stability index of a GFP-peptide fusion (GPS, HEK-293T) (PSI 1-6); higher = more stable;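 also: lentivirally expressed fusions sorted by FACS into six bins by GFP to DsRed ratio, PSI derived from sequencing read proportions per bin multiplied by bin number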
experimental-context: c terminus: a fixed tail appended
Label N if protein stability index falls below 2; label Y in every other case.

State whether the measured protein stability index reaches 2, counting equality as reaching it, for L22P
Y

State whether the measured protein stability index reaches 2, counting equality as reaching it, for I18H
Y

State whether the measured protein stability index reaches 2, counting equality as reaching it, for R12I
Y

State whether the measured protein stability index reaches 2, counting equality as reaching it, for K13A
N

State whether the measured protein stability index reaches 2, counting equality as reaching it, for D20Y
Y

State whether the measured protein stability index reaches 2, counting equality as reaching it, for K2M
Y

State whether the measured protein stability index reaches 2, counting equality as reaching it, for L10K
N

State whether the measured protein stability index reaches 2, counting equality as reaching it, for A4G
N

State whether the measured protein stability index reaches 2, counting equality as reaching it, for L3E
Y

State whether the measured protein stability index reaches 2, counting equality as reaching it, for K19M
Y

State whether the measured protein stability index reaches 2, counting equality as reaching it, for L10Q
Y

State whether the measured protein stability index reaches 2, counting equality as reaching it, for H7T
Y

State whether the measured protein stability index reaches 2, counting equality as reaching it, for Q15S
Y

State whether the measured protein stability index reaches 2, counting equality as reaching it, for R12C
Y

State whether the measured protein stability index reaches 2, counting equality as reaching it, for D1R
Y

State whether the measured protein stability index reaches 2, counting equality as reaching it, for D1Y
Y

State whether the measured protein stability index reaches 2, counting equality as reaching it, for V21H
Y

State whether the measured protein stability index reaches 2, counting equality as reaching it, for R12S
Y

State whether the measured protein stability index reaches 2, counting equality as reaching it, for I18D
Y

State whether the measured protein stability index reaches 2, counting equality as reaching it, for K19Q
N

State whether the measured protein stability index reaches 2, counting equality as reaching it, for V21G
Y

State whether the measured protein stability index reaches 2, counting equality as reaching it, for K19G
Y

State whether the measured protein stability index reaches 2, counting equality as reaching it, for Y24S
N

State whether the measured protein stability index reaches 2, counting equality as reaching it, for D20V
Y

State whether the measured protein stability index reaches 2, counting equality as reaching it, for R12T
N

State whether the measured protein stability index reaches 2, counting equality as reaching it, for L8H
Y

State whether the measured protein stability index reaches 2, counting equality as reaching it, for K19F
N

State whether the measured protein stability index reaches 2, counting equality as reaching it, for V21D
N

State whether the measured protein stability index reaches 2, counting equality as reaching it, for Q15D
Y

State whether the measured protein stability index reaches 2, counting equality as reaching it, for A4I
Y

State whether the measured protein stability index reaches 2, counting equality as reaching it, for D16C
Y

State whether the measured protein stability index reaches 2, counting equality as reaching it, for L10C
Y

State whether the measured protein stability index reaches 2, counting equality as reaching it, for H7N
Y

State whether the measured protein stability index reaches 2, counting equality as reaching it, for Q15L
Y

State whether the measured protein stability index reaches 2, counting equality as reaching it, for K13G
Y

State whether the measured protein stability index reaches 2, counting equality as reaching it, for E9A
Y

State whether the measured protein stability index reaches 2, counting equality as reaching it, for L5S
Y

State whether the measured protein stability index reaches 2, counting equality as reaching it, for L8I
N

State whether the measured protein stability index reaches 2, counting equality as reaching it, for C6V
Y

State whether the measured protein stability index reaches 2, counting equality as reaching it, for L14G
N

State whether the measured protein stability index reaches 2, counting equality as reaching it, for V21P
Y

State whether the measured protein stability index reaches 2, counting equality as reaching it, for R23C
Y

State whether the measured protein stability index reaches 2, counting equality as reaching it, for D20N
Y

State whether the measured protein stability index reaches 2, counting equality as reaching it, for T11P
N
